molecular target: Relaxin-3 receptor 1 (Homo sapiens); test: Agonist activity at human RXFP3 expressed in CHOK1 cells assessed as inhibition of forskolin-stimulated intracellular cAMP accumulation preincubated for 30 mins followed by forskolin-stimulation and measured after 30 mins by HTRF assay
Sequence (Q9NSD7 whole entry): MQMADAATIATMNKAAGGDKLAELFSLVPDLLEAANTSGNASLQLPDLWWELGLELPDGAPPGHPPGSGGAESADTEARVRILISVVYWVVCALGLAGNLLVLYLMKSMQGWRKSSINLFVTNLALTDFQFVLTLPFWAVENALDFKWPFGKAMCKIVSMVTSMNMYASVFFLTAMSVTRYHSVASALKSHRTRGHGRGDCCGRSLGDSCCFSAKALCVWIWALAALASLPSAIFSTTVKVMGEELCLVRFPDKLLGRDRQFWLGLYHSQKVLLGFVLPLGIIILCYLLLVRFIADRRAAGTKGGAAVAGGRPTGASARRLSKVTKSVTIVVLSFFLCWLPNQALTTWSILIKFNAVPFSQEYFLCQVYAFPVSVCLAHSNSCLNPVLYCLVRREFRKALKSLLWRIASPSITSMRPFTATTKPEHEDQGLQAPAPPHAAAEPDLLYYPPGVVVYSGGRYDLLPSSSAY
Each entry below carries its reported EC50.
recorded endpoint: EC50 (µM)

                                     smiles  unit_abbreviation  result
0  Cc1cc(O)cc2c(/C=N/NC(=N)NCCc3ccc(Cl)c(Cl)c3)c[nH]c12                 µM     0.8
1  COc1cc(C)c2[nH]cc(/C=N/NC(=N)NCCc3ccc(Cl)cc3)c2c1                 µM     1.3

----------
molecular target: Relaxin-3 receptor 2 (Homo sapiens, UniProt Q8TDU9); assay: Agonist activity at human RXFP4 expressed in CHOK1 cells assessed as inhibition of forskolin-stimulated intracellular cAMP accumulation preincubated for 30 mins followed by forskolin-stimulation and measured after 30 mins by HTRF assay; type: functional, cell-based
Sequence (Q8TDU9 whole entry): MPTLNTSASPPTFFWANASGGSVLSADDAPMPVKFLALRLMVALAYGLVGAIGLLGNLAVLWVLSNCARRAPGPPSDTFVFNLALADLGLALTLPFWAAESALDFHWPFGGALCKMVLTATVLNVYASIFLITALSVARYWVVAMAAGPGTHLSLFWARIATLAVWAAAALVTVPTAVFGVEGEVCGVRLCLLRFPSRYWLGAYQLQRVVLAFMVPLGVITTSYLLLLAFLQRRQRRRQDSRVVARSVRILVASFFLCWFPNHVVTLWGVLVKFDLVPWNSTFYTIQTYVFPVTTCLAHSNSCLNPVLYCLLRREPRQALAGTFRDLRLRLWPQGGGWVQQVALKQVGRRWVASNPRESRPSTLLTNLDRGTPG
pEC50: −log10 of the molar value.
recorded endpoint: pEC50

                                     smiles  result
0  COc1cc(C)c2[nH]cc(/C=N/NC(=N)NCCc3ccc(Cl)cc3)c2c1    7.00
1  COc1cc(C)c2[nH]cc(/C=N/NC(=N)NCCc3ccc(Cl)c(Cl)c3)c2c1    7.24
2  Cc1cc(O)cc2c(/C=N/NC(=N)NCCc3ccc(Cl)c(Cl)c3)c[nH]c12    8.40
3  CCc1cc(O)cc2c(/C=N/NC(=N)NCCc3ccc(Cl)cc3)c[nH]c12    8.70

----------
target: UniProt Q8TDU9; assay: Agonist activity at human RXFP4 expressed in CHOK1 cell membranes assessed as stimulation of [35S]-GTPgammaS binding after 3 hrs by scintillation counting method; assay type: functional
recorded endpoint: EC50

In [3]: df
Out[3]:
                                     smiles    study_system  result
0  CCc1cc(O)cc2c(/C=N/NC(=N)NCCc3ccc(Cl)cc3)c[nH]c12  UniProt Q8TDU9   11 nM

----------
biological target: Relaxin-3 receptor 2 (Homo sapiens); test: Agonist activity at human RXFP4 expressed in CHOK1 cells assessed as inhibition of forskolin-stimulated intracellular cAMP accumulation preincubated for 30 mins followed by forskolin-stimulation and measured after 30 mins by HTRF assay relative to relaxin-3; assay type: functional, cell-based
recorded endpoint: Emax (%)

>>> df
                                     smiles                         study_system  recorded_endpoint  result
0  Cc1cc(O)cc2c(/C=N/NC(=N)NCCc3ccc(Cl)c(Cl)c3)c[nH]c12  Relaxin-3 receptor 2 (Homo sapiens)               Emax     113
1  CCc1cc(O)cc2c(/C=N/NC(=N)NCCc3ccc(Cl)cc3)c[nH]c12  Relaxin-3 receptor 2 (Homo sapiens)               Emax     100
2  COc1cc(C)c2[nH]cc(/C=N/NC(=N)NCCc3ccc(Cl)cc3)c2c1  Relaxin-3 receptor 2 (Homo sapiens)               Emax     113

Reference for the values: ChEMBL document CHEMBL4400563
